tested_target: T1, Full-length human Ubc9 in pGAD424 (GAL4 activation domain fusion) (human, UniProt P04386 768-881; P63279 1-158)
T1 construct: also called human ubiquitin conjugating enzyme
assay_text: yeast two-hybrid
metric: binding result

{"columns": ["binder", "metric", "result"],
 "data": [
  ["sentrin-1 (1-70) (yeast two-hybrid) (other, also called deletion of the C-terminal 31 amino acids; not shown: GAL4 fusion domain of the two-hybrid vector) MSDQEAKPSTEDLGDKKQGEYIKLKVIGQDSSEIHFKVKMTTHLKKLKESYCQRQGVPMNSLRFLFEGQR", "binding result", "no binding"],
  ["sentrin-1 (24-101) (yeast two-hybrid) (other, also called deletion of the N terminal 23 amino acids; not shown: GAL4 fusion domain of the two-hybrid vector) LKVIGQDSSEIHFKVKMTTHLKKLKESYCQRQGVPMNSLRFLFEGQRIADNHTPKELGMEEEDVIEVYQEQTGGHSTV", "binding result", "binds"],
  ["Sentrin-1 with substitution of Ala-Ala for Gly-Gly (yeast two-hybrid) (other, not shown: GAL4 fusion domain of the two-hybrid vector) MSDQEAKPSTEDLGDKKQGEYIKLKVIGQDSSEIHFKVKMTTHLKKLKESYCQRQGVPMNSLRFLFEGQRIADNHTPKELGMEEEDVIEVYQEQTAAHSTV", "binding result", "no binding"],
  ["MSDQEAKPSTEDLGDKKQGEYIK (Range worked out from the words: the N-terminal 23 amino acids; also called sentrin-1 (1-23); not shown: GAL4 fusion domain of the two-hybrid vector) [The N-terminal 23 amino acids of sentrin-1 (yeast two-hybrid)]", "binding result", "no binding"]
]}
